# Test Details: Pharmacokinetic evaluation in beagle dogs in vivo
# Design: species or system beagle dog
# Condition Notes: male, dog, plasma, PO 2 mg/kg vs IV 1 mg/kg, read-out: Bioavailability F
Property Label: bioavailability (%)
Numbers only, in %.

## Input Name the recorded bioavailability for `[2H]C([2H])([2H])N1CCC[C@@H](Nc2cc(C)c(-c3ccc4sccc4c3O)nn2)C1` .
## Output 80.9

====

# Test Details: Pharmacokinetic evaluation in beagle dogs in vivo
# Design: species or system beagle dog
# Condition Notes: male, dog, plasma, IV 1 mg/kg, read-out: Area under drug-time curve AUC0-last IV
Property Label: AUC(0-t) (µM·h)
Numbers only, in µM·h.

## Input Name the recorded AUC(0-t) for `[2H]C([2H])([2H])N1CCC[C@@H](Nc2cc(C)c(-c3ccc4sccc4c3O)nn2)C1` .
## Output 1.92
